The following compounds are shown together with reported melting point values.

Compound: O=C(NCCO)c1cccc(-c2cccn3c(=O)n(Cc4cccc(C(F)(F)F)c4)nc23)c1
Assay Result: 148 to 150 °C
--
Compound: O=C1C=C(NC(=O)C(=O)c2cn(Cc3ccc(Cl)cc3)c3cc(Cl)ccc23)CO1
Assay Result: 255 to 257 °C
--
Compound: CS(=O)c1ccc(C2=C(c3ccccc3)C(=O)OC2)cc1 (stereo not given)
Assay Result: 149 to 150 °C

Item CC(=Cc1ccc(-n2ccnc2)cc1)[N+](=O)[O-] : provide melting point
119 to 120 °C

Item CN1C(=O)C(NC(=O)OC(C)(C)C)CC(=O)c2ccccc21 (stereo not given) : provide melting point
205 to 206 °C

Item COc1ccc(NC(=O)c2ccc(Br)cc2)cc1N1CCN(C(=O)OC(C)(C)C)CC1 : provide melting point
156 to 158 °C

Item CCCOc1ccccc1-c1nc(C)cc(O)n1 : provide melting point
109 to 110 °C

Item NC(=O)c1ccc2[nH]cc(C3=CCNCC3)c2c1 : provide melting point
225 to 230 °C

Item Cn1nc(Oc2ccc(N)c(N)c2)cc1C(F)(F)F : provide melting point
109 to 111 °C

Item CCOC(=O)C1=C(c2ccc(-n3c(C)nc4cnccc43)cc2)NC(C)=C(C(=O)OCCOC)C1c1ccccc1Cl (stereo not given) : provide melting point
195 to 196 °C

---

Measurement Label: melting point (°C)
Express it in °C; write the number only.

Compound: c1ccc(-c2nc3ccccn3c2-c2ccnc(-c3ccc(N4CCOCC4)cc3)c2)nc1
Result Units: °C
melting point: 145
--
Compound: O=C1c2ccccc2C(=S)N1C1CCC(=S)NC1=S (centres undefined)
Result Units: °C
melting point: 244

Item O=S1(=O)c2cccc3cccc(c23)N1CCCN1CCC(CC2CCc3ccccc32)CC1 (centres undefined) : provide melting point
183

Item N#Cc1c(N2CCN(C(=O)c3cccs3)CC2)c2ccsc2n(Cc2ccccc2)c1=O : provide melting point
257

---

Measurement Label: melting point

Compound: N#Cc1ccc(-c2cnc3cnc(-c4ccc(O)cc4)nc3c2)cc1
melting point: 313 to 314 °C
--
Compound: O=Cc1cc2n(n1)CCOC2
melting point: 91 °C
--
Compound: CNC(=N[N+](=O)[O-])NCc1ccc(Cl)nc1
melting point: 150 to 152 °C

Item CCCCC1OC(=O)c2cc([N+](=O)[O-])ccc21 (stereo unspecified) : provide melting point
53 to 55 °C

Item COC(=O)N1C(=O)[C@H](O)[C@@H]1c1ccccc1 : provide melting point
91 to 92 °C

Item CCc1cc(C#N)ccc1N=C1OCC(C)(C)N1C1CCCC1 : provide melting point
112 to 114 °C

---

The following compounds are shown together with reported melting point values.

Compound: O=C1C2=C(CCCC2)C(=O)N1c1cc(O)c(Cl)cc1Cl
Measurement Label: melting point
Assay Result: 155 to 157 °C
--
Compound: CCOC(=O)c1cc(=O)c2c(OCC(O)COc3ccccc3C)cccc2o1 (stereo unspecified)
Measurement Label: melting point
Assay Result: 75 to 76 °C
--
Compound: Cc1nc[nH]c1CSCCNC(=N)NCCSCc1nccs1
Measurement Label: melting point
Assay Result: 149 to 151 °C

Item O=C(N[C@H]1CCN(C(=O)c2cc(C(F)(F)F)cc(C(F)(F)F)c2)[C@H](Cc2ccc(Cl)cc2)C1)c1cc(=O)c2ccc(Cl)cc2o1 : provide melting point
218 to 220 °C

---

The following compounds are shown together with reported melting point values.

# count of solved cases: 10
Compound: COc1ccc(COc2cccc(OC)c2C(=O)C=C(SC)SC)cc1
Measurement Label: melting point
Assay Result: 93 to 94 °C
//
Compound: CCOCc1nc2c(N)nc3cc(-c4cccc(CO)c4)cnc3c2n1CC(C)(C)NS(C)(=O)=O
Measurement Label: melting point
Assay Result: 173 to 174 °C
//
Compound: O=c1[nH]c2cc(Cl)cc(Cl)c2c(=O)n1Cc1cccc(Cl)c1
Measurement Label: melting point
Assay Result: 276 to 279 °C
//
Compound: O=C(COc1ccc(Cl)c(Cl)c1)N1CCC2(CC1)Cn1cc([N+](=O)[O-])nc1O2
Measurement Label: melting point
Assay Result: 218 to 220 °C
//
Compound: COc1cc(Cc2nccc3c(OC(C)=O)cc(OC(C)=O)cc23)cc(OC)c1OC
Measurement Label: melting point
Assay Result: 118 to 120 °C
//
Compound: CS(=O)(=O)c1ccc(-n2cnc(Cl)c2-c2ccc(Cl)c(Cl)c2)cc1
Measurement Label: melting point
Assay Result: 156 to 157 °C
//
Compound: O=C(C=Cc1ccc(C(=O)O)cn1)NCCCCN1CCN(C(c2ccccc2)c2ccccc2)CC1
Measurement Label: melting point
Assay Result: 214 to 216 °C
//
Compound: Cc1nc(-c2ccccc2)nc(OCC(=O)N(CC2CC2)c2ccccc2)c1C
Measurement Label: melting point
Assay Result: 119 to 121 °C
//
Compound: CCCCCCn1nnc(NC(=O)Nc2c(C(C)C)cccc2C(C)C)n1
Measurement Label: melting point
Assay Result: 154 to 156 °C
//
Compound: O=S(=O)(c1[nH]c(-c2ccc(Cl)cc2)c(S(=O)(=O)C(F)(F)F)c1Br)C(F)(F)F
Measurement Label: melting point
Assay Result: 115 to 135 °C

Item N#CC1=C(C#N)Sc2nc3ccccc3nc2S1 : provide melting point
> 300 °C

Item OC1CSC(Oc2ccc(-n3ccnc3)cc2)C(O)C1O (stereo not given) : provide melting point
180 °C

Item NC(=O)c1ccc(-c2nc(O)c3c(n2)CCC3)cc1 : provide melting point
201 °C

Item NC(=O)c1c(Cl)ccc(Br)c1F : provide melting point
157 to 158 °C

Item COc1ccc(C2(O)c3ccccc3-c3ccccc32)cc1 : provide melting point
91 to 93 °C

---

The following molecules are shown together with reported melting point values.

# count of solved cases: 5
Molecule: O=C(O)Cc1cccc(-c2cccc(COC3OC(CO)C(O)C(O)C3O)c2)c1 (centres undefined)
Assay Result: 74 to 75 °C
//
Molecule: COc1ccc2c(c1)C(C(=O)N(Cc1ccc(CO)cc1)c1ccc(C(C)C)cc1)CCC2 (centres undefined)
Assay Result: 143 °C
//
Molecule: COCCc1cccc2oc(C(=O)Nc3ccc(-c4ccc(S(=O)(=O)NC(C(=O)O)C(C)C)cc4)cc3)c(C)c12 (centres undefined)
Assay Result: 100 to 110 °C
//
Molecule: CC(C)(C)CN1C(=O)[C@H](CC(=O)O)O[C@@H](c2ccccc2Cl)c2cc(Cl)ccc21
Assay Result: 241 to 245 °C
//
Molecule: c1csc(C2=NCC3COCCN3c3cc4c(cc32)OCCO4)c1 (centres undefined)
Assay Result: 192 to 194 °C

Moving on to the next molecule.
Item Cn1ccnc1NC(=O)c1c(C(F)(F)F)nc2c(C(F)(F)F)cccc2c1O : provide melting point
259 °C

---

The following compounds are shown together with reported melting point values.

Item Cc1nccn1-c1nc(Cl)c(-c2ccccc2)c2ccccc12 : provide melting point
167 to 168 °C

Item COc1ccc(Cn2c(=O)c3cnc(Nc4ccc(N5CCN(C)CC5)cc4)nc3n(C(C)C)c2=O)cc1 : provide melting point
215 to 216 °C

Item CCOc1c(OC)cc(C(=O)NN=C2CCCC2=Cc2ccccc2)cc1OC : provide melting point
239 to 240 °C

Item O=c1oc2c(c(O)c1C(c1ccccc1)C1CC1)CCCCCCC2 (centres undefined) : provide melting point
81.7 to 84 °C

Item Fc1ccc(OC(=S)Nc2ccc(-c3ncn(-c4ccc(OC(F)(F)F)cc4)n3)cc2)cc1 : provide melting point
164 to 169 °C

Item Cc1ccc(-c2cc(-c3ccccc3)cc3c2OC(CN)C3)cc1 (centres undefined) : provide melting point
159 to 162 °C

Item O=C(NN=C(c1ccc(Cl)cc1)c1ccc(OC(F)(F)C(Cl)Cl)cc1)OCC(Cl)(Cl)Cl : provide melting point
97 to 103 °C

Item O=C(O)C(Cl)(Cl)CCCCCCCCCCc1ccccc1 : provide melting point
157 to 159 °C

Item COc1cc(-c2ccccc2C(F)(F)F)c(Cl)cc1C(=O)N1Cc2ccc(C(=O)N(C)Cc3cccnc3)n2Cc2ccccc21 : provide melting point
124 to 126 °C

---

The following compounds are shown together with reported melting point values.

# count of solved cases: 5
Compound: COc1ccc2c(c1)c(Cc1cc(=O)n(-c3cccc(C)c3)[nH]1)c(C)n2C(=O)c1ccc(Cl)cc1
melting point: 120 to 122 °C
--
Compound: O=C(O)Cc1cn(-c2ccccc2)nc1-c1ccccc1
melting point: 120 to 121 °C
--
Compound: O=CC(c1ccccc1)c1nc(-c2ccncc2)cs1 (stereo not given)
melting point: 163 to 164 °C
--
Compound: O=c1[nH]c(S)nnc1-c1cc(O)c(O)c([N+](=O)[O-])c1
melting point: 282 to 284 °C
--
Compound: CCCN(c1ccc(O)c(Cl)c1)S(=O)(=O)c1ccc(O)cc1
melting point: 138 to 140 °C

Item CC(=O)NC(=O)OCc1nc(C(C)C)c(Sc2cc(Cl)cc(Cl)c2)n1Cc1ccncc1 : provide melting point
135 to 137 °C

Item COc1cc2sc(-c3ccccn3)nc(=O)c2cc1OC : provide melting point
236 to 238 °C

Item O=CN1CCN(c2nc3cccc4c3n2CCC4)CC1 : provide melting point
138 to 139 °C

Item CCOC(=O)Cc1ccc(Cc2nc3c(F)c(F)cc(F)c3s2)cc1 : provide melting point
75 to 77 °C

Item Cc1ncn(-c2nc(C(=O)NCc3ccc(F)c(C)c3)c(O)c(=O)n2C)n1 : provide melting point
204 to 205 °C

Item CN1C(=O)CCC1(O)c1ccc(Cl)c(S(=O)(=O)NCc2ccccc2Cl)c1 (stereo not given) : provide melting point
144 to 145 °C

Item CCOCCC(=O)OC1(C(=O)CO)CCC2C3CCC4=CC(=O)CCC4(C)C3C(O)CC21C (stereo not given) : provide melting point
149 °C
